Provenance of the data: patent US7491827B2

- Experimental system: cloned human CCR8 receptor stably expressed in L1.2 cells (Homo sapiens, UniProt P51685)
- Construct: expressed in transfected cells
- Sequence (P51685 whole entry): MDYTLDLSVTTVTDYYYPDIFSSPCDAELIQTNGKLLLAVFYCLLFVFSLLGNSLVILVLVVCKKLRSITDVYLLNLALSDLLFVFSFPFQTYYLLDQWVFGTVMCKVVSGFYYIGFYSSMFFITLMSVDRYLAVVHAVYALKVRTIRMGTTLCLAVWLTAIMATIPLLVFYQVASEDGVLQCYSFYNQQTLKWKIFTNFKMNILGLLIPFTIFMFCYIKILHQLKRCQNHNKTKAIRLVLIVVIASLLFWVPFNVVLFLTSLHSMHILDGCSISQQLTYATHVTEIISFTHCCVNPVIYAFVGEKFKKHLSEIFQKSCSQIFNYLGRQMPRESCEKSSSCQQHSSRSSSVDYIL
- Procedure summary: whole cell binding screen: inhibition of biotinylated human I309 binding to CCR8 (FMAT 8100 HTS)
- Condition info: L1.2/hCCR8 cells, biotinylated human I-309, 10 point concentration response starting at 10 μM; read-out: Ki of compounds to inhibit I-309 binding to CCR8
Value kind: Ki

* CCOC(=O)N1CCC(NS(=O)(=O)c2ccc(CNCC3CCCCC3)c3ccccc23)CC1 | < 500 nM
* COc1ccc(NS(=O)(=O)c2ccc(NC(=O)Nc3ccccc3)c3ccccc23)cc1 | < 30000 nM
* CN(C)C(=O)N1CCC(NS(=O)(=O)c2ccc(C(=O)NC3CCCCC3)c3ccccc23)CC1 | < 500 nM
* CCOC(=O)N1CCC(NS(=O)(=O)c2ccc(NC(=O)C3CCCCC3)c3c2CCCC3)CC1 | < 500 nM
* CCOC(=O)N1CCC(NS(=O)(=O)c2ccc(CNC3CCN(C)CC3)c3ccccc23)CC1 | < 30000 nM
* Cc1ccccc1C(=O)Nc1ccc(S(=O)(=O)NC2CCN(C(=O)[C@@H]3CCCN3C)CC2)c2ccccc12 | < 500 nM
* COc1ccc(NS(=O)(=O)c2ccc(NC(=O)c3ccc(OC)cc3)c3ccccc23)cc1 | < 500 nM
* CC(C)(C)OC(=O)N1CCC(NS(=O)(=O)c2ccc(C(=O)NC3CCCCC3)c3ccccc23)CC1 | < 1000 nM
* CCCC(=O)N1CC[C@H](NS(=O)(=O)c2ccc(NC(=O)c3ccccc3C)c3ncccc23)[C@H](C)C1 | < 500 nM
* O=C(Nc1cccc2c(S(=O)(=O)Nc3ccc(F)cc3)cccc12)c1ccccc1 | < 30000 nM
* Cc1ccccc1C(=O)Nc1ccc(S(=O)(=O)NC2CCN(Cc3ccccc3)CC2(C)C)c2ccccc12 (racemic) | < 500 nM
* CCOC(=O)N1CCC(NS(=O)(=O)c2ccc(NC(=O)c3ccccc3C#N)c3ccccc23)CC1 | < 500 nM
* CC(=O)N1CC[C@H](NS(=O)(=O)c2ccc(NC(=O)c3ccccc3C)c3ccccc23)[C@@H](C)C1 (racemic) | < 500 nM
* CC(=O)N1CC[C@H](NS(=O)(=O)c2ccc(NC(=O)c3ccccc3C)c3ccccc23)[C@H](C)C1 (racemic) | < 500 nM
* CCNC(=O)N1CCC(NS(=O)(=O)c2ccc(NC(=O)c3ccccc3)c3ccccc23)CC1 | < 500 nM

* * *

- Experimental system: cloned human CCR8 receptor stably expressed in L1.2 cells (Homo sapiens, UniProt P51685)
- Construct: expressed in transfected cells
- Procedure summary: whole cell binding screen: inhibition of biotinylated human I309 binding to CCR8 (FMAT 8100 HTS)
- Condition info: L1.2/hCCR8 cells, biotinylated human I-309, 10 point concentration response starting at 10 μM; read-out: Ki of compounds to inhibit I-309 binding to CCR8
pKi: −log10 of the molar value.
Reported pKi values are given for each entry in this list.
Value kind: pKi

• CCCC(=O)N1CCC(NS(=O)(=O)c2ccc(NC(=O)c3ccccc3OC)c3ccccc23)CC1 = > 6.30
• CCCC(=O)N1CCC(NS(=O)(=O)c2ccc(NC(=O)c3c(F)cccc3C(F)(F)F)c3ccccc23)CC1 = > 6.30
• O=C(NCc1ccc(S(=O)(=O)NC2CCCCC2)c2ccccc12)c1ccco1 = > 6.00
• CCOC(=O)N1CC[C@H](NS(=O)(=O)c2ccc(NC(=O)c3ccccc3C)c3ccccc23)[C@@H](C)C1 (racemic) = > 6.30

* * *

Reported Ki values are given for each entry in this list.
- Experimental system: cloned human CCR8 receptor stably expressed in L1.2 cells (Homo sapiens, UniProt P51685)
- Construct: expressed in transfected cells
- Procedure summary: whole cell binding screen: inhibition of biotinylated human I309 binding to CCR8 (FMAT 8100 HTS)
- Condition info: L1.2/hCCR8 cells, biotinylated human I-309, 10 point concentration response starting at 10 μM; read-out: Ki of compounds to inhibit I-309 binding to CCR8
Value kind: Ki

* CCOC(=O)N1CCC(NS(=O)(=O)c2cccc3c(NC(=O)c4cc(C)oc4C)cccc23)CC1 | < 1000 nM
* CN1CCC(C(=O)Nc2ccc(S(=O)(=O)NC3CCN(C(=O)OC(C)(C)C)CC3)c3ccccc23)CC1 | < 30000 nM
* CN1CCCC(C(=O)Nc2ccc(S(=O)(=O)NC3CCN(C(=O)OC(C)(C)C)CC3)c3ccccc23)C1 (stereo not shown) | < 30000 nM
* CCOC(=O)N1CC[C@H](NS(=O)(=O)c2ccc(NC(=O)c3ccccc3C)c3ccccc23)[C@@H](CO)C1 (racemic) | < 500 nM
* Cc1ccccc1C(=O)NCc1ccc(S(=O)(=O)NC2CCCCC2)c2ccccc12 | < 1000 nM
* CCNC(=O)N1CC[C@H](NS(=O)(=O)c2ccc(NC(=O)c3ccccc3C)c3ccccc23)[C@@H](C)C1 (racemic) | < 500 nM
* COCC(=O)N1CCC(NS(=O)(=O)c2ccc(NC(=O)c3ccccc3C)c3c2CCCC3)CC1 | < 500 nM
* Cc1ccccc1C(=O)Nc1ccc(S(=O)(=O)N[C@@H]2CCN(C(=O)[C@H](C)N)C[C@@H]2C)c2ccccc12 | < 500 nM
* CN(C)CCNS(=O)(=O)c1ccc(NC(=O)c2ccccc2)c2ccccc12 | < 30000 nM
* O=C(Nc1ccc(S(=O)(=O)NC2CCN(C(=O)N3CCOCC3)CC2)c2ccccc12)c1ccccc1 | < 500 nM
* CCCC(=O)N1CC[C@H](NS(=O)(=O)c2ccc(N3C(=O)c4ccccc4C3=O)c3ccccc23)[C@H](C)C1 (racemic) | < 500 nM
* CC[C@H](N)C(=O)N1CCC(NS(=O)(=O)c2ccc(NC(=O)c3ccccc3C)c3ccccc23)CC1 | < 500 nM
* CCOC(=O)N1CCC(NS(=O)(=O)c2ccc(NC(=O)c3ccccc3C)c3c2CCCC3)CC1 | < 500 nM
* CCCC(=O)N1CCC(NS(=O)(=O)c2ccc(NC(=O)C3CCN(C)CC3)c3ccccc23)CC1 | < 30000 nM
* Cc1ccccc1C(=O)Nc1ccc(S(=O)(=O)NC2CCNC2)c2c1CCCC2 (racemic) | < 500 nM
* CCOC(=O)[C@H]1CN(C(=O)OCC)CC[C@@H]1NS(=O)(=O)c1ccc(NC(=O)c2ccccc2C)c2ccccc12 (racemic) | < 30000 nM
* Cc1cccc(NC(=O)c2ccc(S(=O)(=O)NC3CCN(C(=O)OC(C)(C)C)CC3)c3ccccc23)c1C | < 500 nM
* CCOC(=O)c1ccc(NS(=O)(=O)c2cccc3c(NC(=O)c4ccccc4C)cccc23)cc1 | < 30000 nM
* CCNC(=O)N1CCC(NS(=O)(=O)c2ccc(NC(=O)c3ccccc3F)c3ccccc23)CC1 | < 500 nM
* Cc1ccccc1C(=O)Nc1ccc(S(=O)(=O)NC2CCN(C(=O)OC(C)(C)C)CC2)c2c1CCC2 | < 1000 nM
* CC(C)(C)OC(=O)N1CCC(NS(=O)(=O)c2ccc(NC(=O)c3cccnc3)c3ccccc23)CC1 | < 1000 nM
* CCCC(=O)N1CC[C@@H](NS(=O)(=O)c2ccc(NC(=O)c3ccccc3C)c3ccccc23)[C@@H](C)C1 (single isomer, unassigned) [Compound C-141] | < 1000 nM
* O=C(Nc1ccc(S(=O)(=O)NCc2ccncc2)c2ccccc12)c1ccccc1 | < 30000 nM
* Cc1ccccc1C(=O)Nc1ccc(S(=O)(=O)NCCCN2CCCC2=O)c2c1CCCC2 | < 1000 nM
* CCOC(=O)N1CC[C@H](NS(=O)(=O)c2ccc(NC(=O)c3ccccc3C)c3c2CCCC3)[C@H](C)C1 (racemic) | < 500 nM
* Cc1ccccc1C(=O)Nc1ccc(S(=O)(=O)N[C@H]2CCN(Cc3ccccc3)C[C@H]2C)c2c1CCC2 (racemic) | < 1000 nM
* O=C(Nc1ccc(S(=O)(=O)Nc2ccc(-c3ccccc3)cc2)c2ccccc12)c1ccccc1 | < 30000 nM
* CC[C@@H]1CN(C(=O)[C@@H]2CCCN2)CC[C@H]1NS(=O)(=O)c1ccc(NC(=O)c2ccccc2C)c2ccccc12 | < 500 nM

* * *

Reported pKi values are given for each entry in this list.
- Experimental system: cloned human CCR8 receptor stably expressed in L1.2 cells (Homo sapiens, UniProt P51685)
- Construct: expressed in transfected cells
- Procedure summary: whole cell binding screen: inhibition of biotinylated human I309 binding to CCR8 (FMAT 8100 HTS)
- Condition info: L1.2/hCCR8 cells, biotinylated human I-309, 10 point concentration response starting at 10 μM; read-out: Ki of compounds to inhibit I-309 binding to CCR8
- Text: This whole cell binding screen evaluates the ability of compounds to inhibit biotinlyated human I309 binding to the cloned human CCR8 receptor stably expressed in L1.2 cells. Human CCR8 gene was amplified by PCR using PFU polymerase under standard conditions from human genomic DNA purchased from Stratagene. The PCR primers used were: The 5′ and 3′ primers contained flanking enzyme sites (Bam Hi and Not 1,respectively), which were used to subclone the gene into pcDNA3.1. […]
pKi: −log10 of the molar value.
Value kind: pKi

* Cc1ccccc1C(=O)Nc1ccc(S(=O)(=O)NC2CCCNC2)c2ccccc12 (racemic) [Compound C-112] | > 6.00
* COc1ccc(NS(=O)(=O)c2ccc(NC(=O)c3ccccc3OC)c3ccccc23)cc1 [Compound B-6] | > 4.52
* CCOC(=O)N1CC[C@H](NS(=O)(=O)c2ccc(NC(=O)c3ccccc3C)c3ccccc23)[C@H](CO)C1 (racemic) [Compound C-81] | > 6.30
* CCCC(=O)N1CC[C@H](NS(=O)(=O)c2ccc(NC(=O)c3ccccc3C)c3ccccc23)[C@@H](CO)C1 (racemic) [Compound C-76] | > 6.30
* Cc1ccccc1C(=O)Nc1ccc(S(=O)(=O)N[C@H]2CCN(C(=O)N(C)C)C[C@H]2C)c2ccccc12 (racemic) [Compound C-29] | > 6.30
* CCCC(=O)N1CCC(NS(=O)(=O)c2ccc(C(=O)NC3CCOCC3)c3ccccc23)CC1 [Compound F-24] | > 6.00
* CCOC(=O)N1CCC(NS(=O)(=O)c2cccc3c(C(=O)Nc4ccccc4C)cccc23)CC1 [Compound H-28] | > 6.30
